Values compiled from a melting point compilation (Tetko et al.; mined from patent text by program, amines drawn as free bases though some values may be those of a salt).

compounds and their reported melting point

Here are 6 compounds together with their reported answers.
COc1ccc(Cn2nc(-n3cnn(Cc4ccc(F)cc4)c3=O)cc2C(=O)NCc2ccc(F)c(F)c2)cc1 :: 156 to 158 °C
COc1cccc(N2Sc3ccccc3CC2=O)c1OCc1ccccc1 :: 151 to 153 °C
CCCc1nnc2ccc(-c3ccccc3)nn12 :: 123 to 125 °C
Nc1ccc(OCc2ccccc2)cc1C=C(Br)Br :: 67 to 68 °C
CCn1nc(-c2ccccc2)c(C(=O)OCC(=O)OCc2ccccc2)c(Nc2cnccc2C)c1=O :: 115 to 116 °C
COC(=O)NCCc1ccc(C(=O)OC)c(S(N)(=O)=O)c1 :: 146 to 149 °C

Data request, read-out melting point, for `C=CCNc1nc(NNC(C)(C)C)c2scc(C)c2n1`
105 to 107 °C

# lookup: melting point of `C[C@H](NC(=O)OC(C)(C)C)C(=O)OCCCNc1cccc2c1C(=O)c1ccccc1C2=O`
58 °C

Which melting point value is on record for `NS(=O)(=O)c1cc(C(=O)O)cc(NCCc2ccncc2)c1-c1ccccc1` ?
216 to 218 °C

// melting point lookup, key: `CCCCN1C(=O)CC(=O)N(c2ccccc2)c2cc(Cl)ccc21`
159 to 161 °C
